Attribute: Tm
B1: Subtilisin inhibitor, P01006 (parent)
chain: MRNTGAGPSPSVSRPPPSAAPLSGAALAAPGDAPSALYAPSALVLTVGKGVSATTAAPERAVTLTCAPGPSGTHPAAGSACADLAAVGGDLNALTRGEDVMCPMVYDPVLLTVDGVWQGKRVSYERVFSNECEMNAHGSSVFAF

Variants of: B1
Applied conditions: Streptomyces albogriseolus; pH 9.5; Thermal; DSC; glycine 25 mM; reversible: yes; structure 3SSI; whole UniProt chain shown
Enter your answer as a number in °C; do not include the unit.

Below, 4 variants whose answers are already recorded.
# Mutant label, Unit symbol, Readout value
data = [
    ("M134L", "°C", 80.2),
    ("M134G", "°C", 66.3),
    ("M134V", "°C", 76.4),
    ("M134I", "°C", 75.9),
]

Next item in the queue.
Problem: // Tm lookup, key: M134A
Result: 75.5
